// provenance: patent US8466176B2

Measurement notes: logP(HCOOH) reported with HPLC/MS
Particulars: method [b]: LC-MS at pH 2.7 with 0.1% formic acid in water and acetonitrile (0.1% formic acid), linear gradient 10% to 95% acetonitrile
Reported property: log p

CSc1cccc(C(=NOCc2csc(NCCCc3ccccc3)n2)c2nnnn2C)c1 [Example 305]: 3.71^[b]
Cn1nnnc1C(=NOCc1cccc(NC2CC3CCC2C3)n1)c1ccccc1 (stereo not drawn) [Example 300]: 2.45^[b]
CCCCONc1cccc(CON=C(c2ccccc2)c2nnnn2C)n1 [Example 286]: 3.39^[b]
CCCCCCNc1cccc(CON=C(c2cccc(SC)c2)c2nnnn2C)n1 [Example 296]: 2.78^[b]
CCCCCONc1cccc(CON=C(c2ccccc2)c2nnnn2C)n1 [Example 269]: 3.87^[b]
CCOc1ccc(C#Cc2nc(CON=C(c3cccc(F)c3)c3nnnn3C)cs2)cc1 [Example 294]: 4.62^[b]
